tested on: Escherichia coli; assay: Antibacterial activity against Escherichia coli 055:B5 assessed as LPS neutralisation by LAL assay; format: functional, organism-based
pIC50: −log10 of the molar value.
experimentalReadout: pIC50

# compound, targetOrTestSystem, experimentalReadout, limitQualifier, numericValue
measured = [
    ("CC(C)(C)c1cc2c(O)c(c1)Cc1cc(C(C)(C)C)cc(c1OCCNC(=N)N)Cc1cc(C(C)(C)C)cc(c1O)Cc1cc(C(C)(C)C)cc(c1OCCN)C2", "Escherichia coli", "pIC50", "=", 5.39),
    ("CN(C)CCNC(=O)COc1c2cccc1Cc1cccc(c1OCC(=O)NCCN(C)C)Cc1cccc(c1OCC(=O)NCCN(C)C)Cc1cccc(c1OCC(=O)NCCN(C)C)C2 [OTX-008]", "Escherichia coli", "pIC50", "=", 5.47),
    ("CC(C)CCOc1c2cccc1Cc1cc(CCCOP(=O)(O)O)cc(c1O)Cc1cccc(c1OCCC(C)C)Cc1cc(CCCOP(=O)(O)O)cc(c1O)C2", "Escherichia coli", "pIC50", "<", 5.30),
    ("CC(C)CCOc1c2cc(CCC(=O)NCCN(C)C)cc1Cc1cc(CCC(=O)NCCN(C)C)cc(c1OCCC(C)C)Cc1cc(CCC(=O)NCCN(C)C)cc(c1OCCC(C)C)Cc1cc(CCC(=O)NCCN(C)C)cc(c1OCCC(C)C)C2", "Escherichia coli", "pIC50", "<", 5.30),
    ("CC(C)(C)c1cc2c(OCC(=O)NCCN)c(c1)Cc1cc(C(C)(C)C)cc(c1OCC(=O)NCCN)Cc1cc(C(C)(C)C)cc(c1OCC(=O)NCCN)Cc1cc(C(C)(C)C)cc(c1OCC(=O)NCCN)C2", "Escherichia coli", "pIC50", "=", 6.05),
    ("CC(C)(C)c1cc2c(OCCCCNC(=N)N)c(c1)Cc1cc(C(C)(C)C)cc(c1OCCCCNC(=N)N)Cc1cc(C(C)(C)C)cc(c1OCCCCNC(=N)N)Cc1cc(C(C)(C)C)cc(c1OCCCCNC(=N)N)C2", "Escherichia coli", "pIC50", "=", 7.40),
    ("CCCc1cc2c(OCC(=O)NCCN(C)C)c(c1)Cc1cc(CC(C)C)cc(c1OCC(=O)NCCN(C)C)Cc1cc(CCC)cc(c1OCC(=O)NCCN(C)C)Cc1cc(CC(C)C)cc(c1OCC(=O)NCCN(C)C)C2", "Escherichia coli", "pIC50", "=", 5.42),
    ("CN(C)CCNC(=O)COc1c2cc(C(C)(C)C)cc1Cc1cc(C(C)(C)C)cc(c1OCC(=O)NCCN(C)C)Cc1cc(C(C)(C)C)cc(c1OCC(=O)NCCN(C)C)Cc1cc(C(C)(C)C)cc(c1OCC(=O)NCCN(C)C)C2", "Escherichia coli", "pIC50", "<", 5.30),
    ("CN(C)CCNC(=O)COc1c2cccc1Cc1cccc(c1O)Cc1cccc(c1OCC(=O)NCCN(C)C)Cc1cccc(c1O)C2", "Escherichia coli", "pIC50", "<", 5.30),
    ("CC(C)(C)c1cc2c(OCc3cn(CCN)nn3)c(c1)Cc1cc(C(C)(C)C)cc(c1OCc1cn(CCN)nn1)Cc1cc(OCc3cnnn3CCN)cc(c1C(C)(C)C)Cc1cc(C(C)(C)C)cc(c1OCc1cn(CCN)nn1)C2", "Escherichia coli", "pIC50", "=", 6.22),
    ("CCCc1cc2c(OCC(=O)NCCN(C)C)c(c1)Cc1cc(CCC)cc(c1OCC(=O)NCCN(C)C)Cc1cc(CCC)cc(c1OCC(=O)NCCN(C)C)Cc1cc(OCC(=O)NCCN(C)C)cc(c1CCC)C2", "Escherichia coli", "pIC50", "=", 7.30),
    ("CC(C)(C)c1cc2c(O)c(c1)Cc1cc(C(C)(C)C)cc(c1OCCNC(=N)N)Cc1cc(C(C)(C)C)cc(c1O)Cc1cc(C(C)(C)C)cc(c1OCCNC(=N)N)C2", "Escherichia coli", "pIC50", "<", 5.30),
    ("CC(C)(C)c1cc2c(OCCCCN)c(c1)Cc1cc(C(C)(C)C)cc(c1OCCCCN)Cc1cc(C(C)(C)C)cc(c1OCCCCN)Cc1cc(C(C)(C)C)cc(c1OCCCCN)C2", "Escherichia coli", "pIC50", "=", 5.89),
    ("CC(C)CCOc1c2cccc1Cc1cc(CCC(=O)O)cc(c1O)Cc1cccc(c1OCCC(C)C)Cc1cc(CCC(=O)O)cc(c1O)C2", "Escherichia coli", "pIC50", "<", 5.30),
    ("CC(C)(C)c1cc2c(OCc3cn(CCN)nn3)c(c1)Cc1cc(C(C)(C)C)cc(c1OCc1cn(CCN)nn1)Cc1cc(C(C)(C)C)cc(c1OCc1cn(CCN)nn1)Cc1cc(C(C)(C)C)cc(c1OCc1cn(CCN)nn1)C2", "Escherichia coli", "pIC50", "=", 7.30),
    ("NCCNC(=O)COc1c2cccc1Cc1cccc(c1O)Cc1cccc(c1OCC(=O)NCCN)Cc1cccc(c1O)C2", "Escherichia coli", "pIC50", "<", 5.30),
    ("CC(C)Cc1cc2c(OCC(=O)NCCN(C)C)c(c1)Cc1cc(CC(C)C)cc(c1OCC(=O)NCCN(C)C)Cc1cc(C(C)C)cc(c1OCC(=O)NCCN(C)C)Cc1cc(CC(C)C)cc(c1OCC(=O)NCCN(C)C)C2", "Escherichia coli", "pIC50", "=", 8.22),
    ("CC(C)CCOc1c2cccc1Cc1cc(CCCOS(=O)(=O)O)cc(c1O)Cc1cccc(c1OCCC(C)C)Cc1cc(CCCOS(=O)(=O)O)cc(c1O)C2", "Escherichia coli", "pIC50", "=", 5.30),
    ("C=CCc1cc2c(OCC(=O)NCCN(C)C)c(c1)Cc1cc(CC(=C)C)cc(c1OCC(=O)NCCN(C)C)Cc1cc(CC=C)cc(c1OCC(=O)NCCN(C)C)Cc1cc(CC(=C)C)cc(c1OCC(=O)NCCN(C)C)C2", "Escherichia coli", "pIC50", "=", 5.44),
    ("CCCc1cc2c(OCC(=O)NCCN(C)C)c(c1)Cc1cc(CCC)cc(c1OCC(=O)NCCN(C)C)Cc1cc(CCC)cc(c1OCC(=O)NCCN(C)C)Cc1cc(CCC)cc(c1OCC(=O)NCCN(C)C)C2", "Escherichia coli", "pIC50", "=", 5.36),
    ("CC(C)(C)c1cc2c(OCCCCN)c(c1)Cc1cc(C(C)(C)C)cc(c1OCCCCNC(=N)N)Cc1cc(C(C)(C)C)cc(c1OCCCCNC(=N)N)Cc1cc(C(C)(C)C)cc(c1OCCCCNC(=N)N)C2", "Escherichia coli", "pIC50", "=", 7.00),
    ("N=C(N)NCCOc1c2cccc1Cc1cccc(c1O)Cc1cccc(c1OCC(=O)NC(=N)N)Cc1cccc(c1O)C2", "Escherichia coli", "pIC50", "=", 5.39),
]
